- Assay System: T1, human angiotensin 2 type 1 receptor (human, UniProt P30556 1-359)
- T1 sequence (looked up): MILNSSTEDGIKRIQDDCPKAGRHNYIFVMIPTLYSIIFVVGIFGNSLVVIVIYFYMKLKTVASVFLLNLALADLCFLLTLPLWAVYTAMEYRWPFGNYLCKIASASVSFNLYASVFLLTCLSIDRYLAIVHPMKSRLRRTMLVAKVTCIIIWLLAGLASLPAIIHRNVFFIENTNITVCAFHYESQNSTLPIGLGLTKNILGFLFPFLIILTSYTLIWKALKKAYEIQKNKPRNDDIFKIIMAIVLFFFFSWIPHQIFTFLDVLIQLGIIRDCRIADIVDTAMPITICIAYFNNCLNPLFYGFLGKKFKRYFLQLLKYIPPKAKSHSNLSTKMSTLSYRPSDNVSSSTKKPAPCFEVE
- Test: cell-based or functional assay
Non-standard residues stand in square brackets, D forms with d. No end group written: not given here. Sar = CNCC(=O)O
Task for the reader: assign each of the following binders its reported b-arrestin2 EC50.
The response must be a number in µM with no trailing unit.

Query (binder): RVYIHPRVYIHPRVYIHP (cyclic, as printed: Cyclo(...)) [SEQ ID NO: 36] ; field requested: b-arrestin2 EC50 1.2

Cool, now [Sar]RVYVH-NH2 (N-terminus assumed; SMILES CNCC(=O)N[C@@H](CCCNC(=N)N)C(=O)N[C@H](C(=O)N[C@@H](Cc1ccc(O)cc1)C(=O)N[C@H](C(=O)N[C@@H](Cc1c[nH]cn1)C(N)=O)C(C)C)C(C)C) [SEQ ID NO: 55] 0.22

Param item: XRVFIHPA (Sar (sarcosine) at 1; D-Ala at 8) [SEQ ID NO: 48] 1.8

Again, but for [Sar]RVY[dA]HP-NH2 (N-terminus assumed; SMILES CNCC(=O)N[C@@H](CCCNC(=N)N)C(=O)N[C@H](C(=O)N[C@@H](Cc1ccc(O)cc1)C(=O)N[C@H](C)C(=O)N[C@@H](Cc1c[nH]cn1)C(=O)N1CCC[C@H]1C(N)=O)C(C)C) [SEQ ID NO: 53] 1.6
